src = patent US20090010874A1

Would you kindly list Fold increase in IC50 (relative to IL-4DM), primary T cell blasts for each of these binders?
Target: T1, human IL-4 receptor alpha chain on cells (TF-1 cells, primary human T-cell blasts and B cells) (human, UniProt P24394 26-825)
T1 sequence (looked up): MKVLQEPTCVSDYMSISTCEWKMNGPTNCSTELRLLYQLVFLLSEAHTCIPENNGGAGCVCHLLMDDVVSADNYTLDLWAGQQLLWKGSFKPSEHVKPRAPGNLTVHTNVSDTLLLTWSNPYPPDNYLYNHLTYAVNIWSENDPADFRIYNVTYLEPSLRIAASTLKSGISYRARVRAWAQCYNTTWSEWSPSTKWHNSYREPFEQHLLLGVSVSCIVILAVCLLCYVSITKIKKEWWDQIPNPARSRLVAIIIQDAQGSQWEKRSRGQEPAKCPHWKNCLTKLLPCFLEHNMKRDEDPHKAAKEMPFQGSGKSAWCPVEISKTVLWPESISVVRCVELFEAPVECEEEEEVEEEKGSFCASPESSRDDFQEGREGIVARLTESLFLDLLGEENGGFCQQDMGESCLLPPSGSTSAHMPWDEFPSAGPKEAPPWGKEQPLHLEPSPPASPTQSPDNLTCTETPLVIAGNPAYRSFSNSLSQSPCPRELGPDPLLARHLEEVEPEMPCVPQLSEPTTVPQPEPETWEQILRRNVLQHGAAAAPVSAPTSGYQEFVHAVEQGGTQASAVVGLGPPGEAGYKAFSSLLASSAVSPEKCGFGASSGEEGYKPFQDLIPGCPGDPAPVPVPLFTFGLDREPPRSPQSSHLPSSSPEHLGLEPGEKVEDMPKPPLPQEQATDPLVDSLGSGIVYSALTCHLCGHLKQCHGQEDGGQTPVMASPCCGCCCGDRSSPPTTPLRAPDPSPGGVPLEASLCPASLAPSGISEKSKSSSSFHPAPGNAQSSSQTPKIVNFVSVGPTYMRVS
Assay: cell-based or functional assay
Use fold as the unit, but write only the number.

(Q) Can you look up the measured Fold increase in IC50 (relative to IL-4DM), primary T cell blasts of IL-4TM-A104C (R121D/Y124D/A104C) PEGylated with 30 kDa linear maleimide-PEG (ligand, 30 kDa linear maleimide-PEG on Cys 104 (numbered according to wild type IL-4)) MHKCDITLQEIIKTLNSLTEQKTLCTELTVTDIFAASKNTTEKETFCRAATVLRQFYSHHEKDTRCLGATAQQFHRHKQLIRFLKRLDRNLWGLAGLNSCPVKECNQSTLENFLERLKTIMDEKDSKCSS for me?
(A) 4.6

(Q) Can you look up the measured Fold increase in IC50 (relative to IL-4DM), primary T cell blasts of IL-4TM-N38C (R121D/Y124D/N38C) PEGylated with 40 kDa branched maleimide-PEG (ligand, 40 kDa branched maleimide-PEG on Cys 38 (numbered according to wild type IL-4)) MHKCDITLQEIIKTLNSLTEQKTLCTELTVTDIFAASKCTTEKETFCRAATVLRQFYSHHEKDTRCLGATAQQFHRHKQLIRFLKRLDRNLWGLAGLNSCPVKEANQSTLENFLERLKTIMDEKDSKCSS for me?
(A) 2.3

(Q) Can you look up the measured Fold increase in IC50 (relative to IL-4DM), primary T cell blasts of IL-4RA (IL-4 double mutein R121D/Y124D, unPEGylated) (ligand, also called BAY 16-9996; IL-4DM) MHKCDITLQEIIKTLNSLTEQKTLCTELTVTDIFAASKNTTEKETFCRAATVLRQFYSHHEKDTRCLGATAQQFHRHKQLIRFLKRLDRNLWGLAGLNSCPVKEANQSTLENFLERLKTIMDEKDSKCSS for me?
(A) 1

(Q) Can you look up the measured Fold increase in IC50 (relative to IL-4DM), primary T cell blasts of IL4-RE-T13D (T13D/R121D/Y124D), unPEGylated (ligand) MHKCDITLQEIIKDLNSLTEQKTLCTELTVTDIFAASKNTTEKETFCRAATVLRQFYSHHEKDTRCLGATAQQFHRHKQLIRFLKRLDRNLWGLAGLNSCPVKEANQSTLENFLERLKTIMDEKDSKCSS for me?
(A) 0.67

(Q) Can you look up the measured Fold increase in IC50 (relative to IL-4DM), primary T cell blasts of PEGylated T13D-N38C with 40 kDa branched PEG (IL4-RE-T13D-N38C) (ligand, 40 kDa branched maleimide-PEG on Cys 38 (numbered according to wild type IL-4)) MHKCDITLQEIIKDLNSLTEQKTLCTELTVTDIFAASKCTTEKETFCRAATVLRQFYSHHEKDTRCLGATAQQFHRHKQLIRFLKRLDRNLWGLAGLNSCPVKEANQSTLENFLERLKTIMDEKDSKCSS for me?
(A) 3.1

(Q) Can you look up the measured Fold increase in IC50 (relative to IL-4DM), primary T cell blasts of IL-4TM-A104C (R121D/Y124D/A104C) PEGylated with 40 kDa branched maleimide-PEG (ligand, 40 kDa branched maleimide-PEG on Cys 104 (numbered according to wild type IL-4)) MHKCDITLQEIIKTLNSLTEQKTLCTELTVTDIFAASKNTTEKETFCRAATVLRQFYSHHEKDTRCLGATAQQFHRHKQLIRFLKRLDRNLWGLAGLNSCPVKECNQSTLENFLERLKTIMDEKDSKCSS for me?
(A) 7.4
